assay: Inhibition of His6-tagged Mycobacterium tuberculosis Rv3588c expressed in Escherichia coli BL21-AI cells by stopped flow CO2 hydration assay based Michaelis-Menten analysis; format: cell-based
Assay metric: pKi
// pKi: -log10(molar conc.)

The cases that follow already have their pKi on record.
>>> data_value("COc1c(Br)cc(C/C(=N\\O)C(=O)NCCCC(=O)N(C)CCCCN(C)CCCNC(=O)/C(Cc2cc(Br)c(OC)c(Br)c2)=N/O)cc1Br [SPERMATINAMINE]")
4.64
>>> data_value("N#C[S-].[Na+] [THIOCYANATE SODIUM]")
5.10
>>> data_value("COc1c(Br)cc(/C=C/C(=O)NCCCNCCCCNCCCNC(=O)/C=C/c2cc(Br)c(OC)c(Br)c2)cc1Br [IANTHELLIFORMISAMINE C]")
4.80

Consider `C=C1CC[C@@H](C/C=C(\C)CC/C=C(/CCC=C(C)C)C(=O)O)C(C)(C)[C@H]1CC/C(C)=C/C(=O)O` . Its measured pKi is 5.00

Sourced from ChEMBL document CHEMBL3596190
